Dihydroorotate dehydrogenase (Plasmodium falciparum, UniProt Q54A96): reported Ki for various molecules.
Sequence (Q54A96 whole entry): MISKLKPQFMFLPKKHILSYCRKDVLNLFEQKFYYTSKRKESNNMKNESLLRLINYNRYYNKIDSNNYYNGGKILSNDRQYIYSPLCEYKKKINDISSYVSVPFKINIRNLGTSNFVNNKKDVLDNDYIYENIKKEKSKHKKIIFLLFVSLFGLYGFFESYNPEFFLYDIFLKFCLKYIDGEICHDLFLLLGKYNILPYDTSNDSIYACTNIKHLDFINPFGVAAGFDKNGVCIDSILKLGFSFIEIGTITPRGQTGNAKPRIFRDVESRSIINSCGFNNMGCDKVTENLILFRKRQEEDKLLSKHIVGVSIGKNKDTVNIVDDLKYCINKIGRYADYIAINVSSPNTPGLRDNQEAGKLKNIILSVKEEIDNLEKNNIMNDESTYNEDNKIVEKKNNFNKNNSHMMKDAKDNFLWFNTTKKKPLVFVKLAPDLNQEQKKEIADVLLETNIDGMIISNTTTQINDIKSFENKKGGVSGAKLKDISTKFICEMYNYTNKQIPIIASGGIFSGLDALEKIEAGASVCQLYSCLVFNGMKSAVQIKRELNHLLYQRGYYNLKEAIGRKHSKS
READOUT: Ki (nM)

{"CPD_SMILES": "COc1ccccc1-c1ccc(NC(=O)/C(C#N)=C(/C)O)c(Cl)c1", "READOUT": "Ki", "UNIT_STRING": "nM", "ASSAY_VALUE": 1000}
{"CPD_SMILES": "C/C(O)=C(\\C#N)C(=O)Nc1ccc(-c2ccccc2Cl)cc1C(F)(F)F", "READOUT": "Ki", "UNIT_STRING": "nM", "ASSAY_VALUE": 730}
{"CPD_SMILES": "C/C(O)=C(\\C#N)C(=O)Nc1ccc(-c2c(Cl)cccc2Cl)cc1Cl", "READOUT": "Ki", "UNIT_STRING": "nM", "ASSAY_VALUE": 1200}
